Biological target: T1, human LGR7/RXFP1 receptor (human, UniProt Q9HBX9 1-757)
T1 sequence (looked up): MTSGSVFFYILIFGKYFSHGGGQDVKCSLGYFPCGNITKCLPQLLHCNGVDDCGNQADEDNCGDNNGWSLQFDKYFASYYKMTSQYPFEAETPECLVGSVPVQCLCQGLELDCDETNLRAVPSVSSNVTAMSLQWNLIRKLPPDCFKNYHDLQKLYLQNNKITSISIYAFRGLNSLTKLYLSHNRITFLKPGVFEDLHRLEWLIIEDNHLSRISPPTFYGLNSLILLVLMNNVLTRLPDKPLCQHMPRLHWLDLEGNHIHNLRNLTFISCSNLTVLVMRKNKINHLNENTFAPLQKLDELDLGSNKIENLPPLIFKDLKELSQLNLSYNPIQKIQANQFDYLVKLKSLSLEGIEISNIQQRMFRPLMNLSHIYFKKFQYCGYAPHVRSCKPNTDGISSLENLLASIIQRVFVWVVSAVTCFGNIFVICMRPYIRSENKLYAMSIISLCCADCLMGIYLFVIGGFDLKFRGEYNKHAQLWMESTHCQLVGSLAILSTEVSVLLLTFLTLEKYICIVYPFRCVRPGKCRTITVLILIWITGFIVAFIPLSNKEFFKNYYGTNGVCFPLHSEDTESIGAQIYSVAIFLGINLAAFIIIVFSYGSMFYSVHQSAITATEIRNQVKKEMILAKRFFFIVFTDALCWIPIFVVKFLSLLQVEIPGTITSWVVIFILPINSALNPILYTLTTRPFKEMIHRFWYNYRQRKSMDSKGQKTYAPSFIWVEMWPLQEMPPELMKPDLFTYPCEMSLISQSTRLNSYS
Assay: cell-based or functional assay
Entries and their EC50 (M), CRE-luciferase reporter in CHO-CRE-LGR7 cells
Field: numeric (M). Do not append units.

- BINDER: "scR-Fc 17 (Fc fusion) QLYSALANKCCHVGCTKRSLARFCGGGSGGGSGSWMEEVIKLCGRELVRAQIAICGMSTWSGSGSGSPTCPTCHKCPVPELLGGPSVFIFPPKPKDILLISQNAKVTCVVVDVSEEEPDVQFSWFVNNVEVHTAQTQPREEQYNSTFRVVSALPIQHQDWMSGKEFKCKVNNKALPSPIEKTISKPKGLVRKPQVYVMGPPTEQLTEQTVSLTCLTSGFLPNDIGVEWTSNGHIEKNYKNTEPVMDSDGSFFMYSKLNVERSRWDSRAPFVCSVVHEGLHNHHVEKSISRPPGK"
  U: "M"
  REPORTED: "2.5e-09"

Turning now to a further binder:
Inquiry: Fill in the blank: the reported EC50 (M), CRE-luciferase reporter in CHO-CRE-LGR7 cells of scR-Fc 8 (Fc fusion) QLYSALANKCCHVGCTKRSLARFCGGGSGGGSGSWMEEVIKLCGRELVRAQIAICGMSTWSGGSPTCPTCHKCPVPELLGGPSVFIFPPKPKDILLISQNAKVTCVVVDVSEEEPDVQFSWFVNNVEVHTAQTQPREEQYNSTFRVVSALPIQHQDWMSGKEFKCKVNNKALPSPIEKTISKPKGLVRKPQVYVMGPPTEQLTEQTVSLTCLTSGFLPNDIGVEWTSNGHIEKNYKNTEPVMDSDGSFFMYSKLNVERSRWDSRAPFVCSVVHEGLHNHHVEKSISRPPGKHHHHHH is ____.
Reply text: 7.2e-09
